All values here come from paper PMC6152279.

molecular target: PpAChE5 (Pardosa pseudoannulata, UniProt A0A1B1FIV8); experiment: Inhibition of enzyme activity (IC50) of PpAChE5; assay type: biochemical; settings: PpAChE5, on BTC hydrolysis, 10 min preincubation with inhibitor
Sequence (A0A1B1FIV8 25-553): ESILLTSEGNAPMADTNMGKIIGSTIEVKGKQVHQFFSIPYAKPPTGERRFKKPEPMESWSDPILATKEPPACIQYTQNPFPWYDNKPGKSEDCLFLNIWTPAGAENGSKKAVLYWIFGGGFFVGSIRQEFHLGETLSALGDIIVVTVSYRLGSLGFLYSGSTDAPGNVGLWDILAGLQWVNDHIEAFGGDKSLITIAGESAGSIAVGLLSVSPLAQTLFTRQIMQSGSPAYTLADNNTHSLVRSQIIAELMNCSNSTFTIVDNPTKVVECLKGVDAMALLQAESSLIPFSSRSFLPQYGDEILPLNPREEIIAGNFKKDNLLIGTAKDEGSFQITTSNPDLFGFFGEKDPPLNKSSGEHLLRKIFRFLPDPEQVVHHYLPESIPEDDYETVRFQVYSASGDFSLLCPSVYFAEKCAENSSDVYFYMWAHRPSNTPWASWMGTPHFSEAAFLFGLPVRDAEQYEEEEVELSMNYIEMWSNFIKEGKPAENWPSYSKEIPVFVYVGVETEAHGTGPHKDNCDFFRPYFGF
pIC50: −log10 of the molar value.
measured-endpoint: pIC50

The recorded pIC50 for CC(C)NP(=O)(NC(C)C)OP(=O)(NC(C)C)NC(C)C [ISO-OMPA, tetraisopropyl pyrophosphoramide] is < 4.00
